// reported z-score for each item listed
# testDetails: E. coli DRC41 culture turbidity changes, primary screen, E. coli filamentation inducer project, strain DRC41, OD650, 48 h (AID 1152);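 note: E. coli MC1000 strain DRC41 lacking acrAB efflux pump and sulA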
# experimentalSetup: E. coli DRC41 (acrAB sulA), higher = more signal, called active from +8 up or from −8 down
Answer as a number with no unit attached.

In the examples that follow, each entry is paired with its recorded z-score.
1) Cc1ccc(F)cc1S(=O)(=O)N[C@@H]1CCN(Cc2ccc(OC(C)C)cc2)C1 | -19.2
2) C[C@H]1ON(c2ccc(C(=O)OC(C)(C)C)cc2)[C@@H](c2ccc(O)cc2)[C@@H]1C(=O)N1C(=O)OC[C@@H]1c1ccccc1 | -0.569
3) CCOC(=O)C[C@H]1[C@H](OC(=O)c2ccc(-c3ccccc3)cc2)[C@@H](NC(=O)c2ccc3ccccc3c2)c2cc(OCCCO)ccc2N1C(=O)c1ccc2ccccc2n1 | -0.572

Qu. Give the reported z-score for this molecule. O=C1O[C@H](c2ccccc2)[C@H](c2ccccc2)N2[C@H]1[C@@H](C(=O)O)[C@]1(C(=O)Nc3ccccc31)[C@H]2c1ccc(O)cc1
Ans. -0.611

###

# experimentalSystem: Homeobox protein Hox-A13 (Mus musculus) (UniProt Q62424)
# Sequence (Q62424 whole entry, looked up): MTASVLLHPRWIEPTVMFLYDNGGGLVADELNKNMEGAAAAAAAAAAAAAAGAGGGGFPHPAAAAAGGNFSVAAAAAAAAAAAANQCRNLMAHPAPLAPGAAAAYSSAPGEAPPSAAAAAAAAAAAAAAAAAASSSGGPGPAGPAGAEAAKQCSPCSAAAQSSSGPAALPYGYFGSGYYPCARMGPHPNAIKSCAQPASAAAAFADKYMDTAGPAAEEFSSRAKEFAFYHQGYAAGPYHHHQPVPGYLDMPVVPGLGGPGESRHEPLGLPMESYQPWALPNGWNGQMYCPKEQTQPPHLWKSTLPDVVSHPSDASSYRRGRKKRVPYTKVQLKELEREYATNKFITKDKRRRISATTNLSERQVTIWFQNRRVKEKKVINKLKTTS
# testDetails: inhibitors of HoxA13-DNA binding, primary screen, biochemical, fluorescence polarization, labeled oligonucleotide (AID 1185)
# experimentalSetup: 15 min, higher = more signal, called active from +8 up or from −8 down
Here the recorded z-score is given for each entry.
// return just the number, without any unit appended

Worked examples follow.
1) O=C1O[C@@H](c2ccccc2)[C@@H](c2ccccc2)N2[C@@H](c3ccc(O)cc3)[C@]3(C(=O)Nc4ccc(C#CC5=CCCCC5)cc43)[C@@H](C(=O)N3CCN(c4ncccn4)CC3)[C@H]12 | 0.676
2) C=C(C(=O)CC[C@H](OC(=O)c1cccnc1)c1ccc(CO)o1)C(C)C | -5.25
3) O=C1O[C@@H](c2ccccc2)[C@@H](c2ccccc2)N2[C@@H](c3ccc(O)cc3)[C@]3(C(=O)Nc4ccc(C#CCCO)cc43)[C@@H](C(=O)Nc3nc4ccccc4s3)[C@H]12 | -0.524
4) CC(C)C(O)C1C=CC2C(=O)N(C)C(=O)C2N1Nc1ccccc1 (configuration not stated) | -1.81
5) CN(C)C(=O)[C@]1(CCC(=O)OC(C)(C)C)N=C(c2ccc(OCCCO)cc2)O[C@@H]1c1ccccc1 | -5.58
6) O=C1O[C@@H](c2ccccc2)[C@@H](c2ccccc2)N2[C@@H](c3ccccc3OCCO)[C@]3(C(=O)Nc4ccccc43)[C@@H](C(=O)NC[C@H](O)c3ccccc3)[C@H]12 | -5.34

Let's switch to this compound now.
Qu. Provide only the value of recorded z-score for COc1cc2c(cc1O)C(C)N(Cc1cc3c(cc1Br)OCO3)CC2 (configuration not stated)
Ans. -1.58

###

The entries below come with measured composite z-score values attached.
# testDetails: binders of probe aFGF10 on microarray, primary screen, stem cell growth factor project, biochemical, small-molecule microarray, fluorescence 635/667 (AID 1071);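 note: score merges 667 nm spot intensity and signal to noise from triplicate slides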
# experimentalSetup: higher = more signal
Just the number, please, no unit attached.

Previously resolved entries follow.
1) Cc1ccc(C(C)CC(O)C2C=CC3C(=O)N(c4ccccc4)C(=O)C3N2Nc2ccc(C(C)C)cc2)o1 (centres undefined) | 0.712
2) CC(C)CNC(=O)[C@@]1(c2ccc([N+](=O)[O-])cc2)CC(=O)N(C2CCCCC2)[C@@H]1c1ccc(CO)cc1I | -0.186

Qu. Identify measured composite z-score associated with CCOC(=O)C[C@H]1[C@H](OC(=O)c2ccc(-c3ccccc3)cc2)[C@@H](NC(=O)C2CCCCC2)c2cc(OCCCO)ccc2N1C(=O)c1ccccc1
Ans. 0.303

Qu. # return recorded composite z-score for entry COC(=O)[C@@]1(Cc2ccc(OC)cc2)[C@H]2c3cc(C(=O)N(C)C)n(Cc4ccccc4)c3C[C@H]2CN1C(=O)c1ccccc1
Ans. 0.0679

Qu. Could you please provide reported composite z-score for COC(=O)[C@H](Cc1ccccc1)N1CC(/C=C/C2CC2)=C[C@@H]1[C@@H](O)Cc1ccccc1 ? Thanks!
Ans. 1.23

Qu. Fill in composite z-score for record Cc1ccc(F)cc1S(=O)(=O)N[C@@H]1CCN(Cc2ccc(OC(C)C)cc2)C1
Ans. -0.209

Qu. Note composite z-score for the molecule shown: O=C1c2ccccc2[C@@]2(Cc3ccccc3N(C3CC3)C2=O)[C@H](c2ccc(CO)cc2)N1C1CCCCC1
Ans. -0.015

Qu. Output composite z-score of COC(=O)[C@@]1(Cc2ccc(F)cc2)[C@H]2c3cc(C(=O)N4CCCC4)n(CCF)c3C[C@H]2CN1C(=O)c1ccccc1
Ans. 1.1

###

# testDetails: small-molecule binders of probe aLefty1, primary screen, biochemical, small-molecule microarray, 635/667 nm fluorescence (AID 1153);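 note: score merges spot fluorescence with signal-to-noise ratio from the scanned slide images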
# experimentalSetup: higher = more signal
# composite z-score per entry
Number only, no unit.

1) COCCOC(=O)N1C(=O)[C@@]2(c3cc(C#CC4(O)CCCCCC4)ccc31)[C@H](C(N)=O)[C@H]1C(=O)O[C@H](c3ccccc3)[C@H](c3ccccc3)N1[C@@H]2c1ccccc1OCCO | -1.03

Qu. Answer with the recorded composite z-score of Cc1ccc(S[C@]2(C(=O)O)CC(=O)N(Cc3ccccc3Cl)[C@@H]2c2ccc(CO)cc2)cc1 only.
Ans. -0.112

Qu. Report composite z-score, nothing else, for this compound: CC(C)N1C(=O)[C@@]2(c3ccc([N+](=O)[O-])cc3)CC(=O)N(C3CCCCC3)[C@@H]2c2ccc(CO)cc21
Ans. -0.672

Qu. Give me measured composite z-score, please, for this compound: O=C1c2ccccc2[C@](Cc2ccccc2I)(C(=O)NCCN2CCOCC2)[C@H](c2ccc(CO)cc2)N1Cc1ccccc1
Ans. 0.641

Qu. Dear colleague, please send me the reported composite z-score for COc1ccc([Si](C)(C)[C@@H]2[C@@H](CCO)O[C@]3(C(=O)N(Cc4cccc(N5C(=O)c6cccc7cccc5c67)c4)c4ccccc43)[C@H]2C)cc1 when you can.
Ans. 0.0449

Qu. Identify the reported composite z-score for the following entry. COC(=O)c1c(CC[C@@H](CO)NC(=O)N[C@H](Cn2cc(-c3ccccc3C)nn2)C(C)C)oc(C(C)=O)c1C(=O)OC
Ans. -0.112

Qu. // fetch composite z-score given entry C[C@]1(C(=O)NC2CC2)c2ccccc2C(=O)N(Cc2ccc(OC(F)(F)F)cc2)[C@H]1c1ccc(CO)cc1
Ans. -0.0186

###

# testDetails: compound binding in COS7 lysate, probe aLAP1, primary screen, cell lysate, small-molecule microarray (AID 1124);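 note: lysate comes from COS7 cells expressing LAP1 and is applied at 0.3 µg/mL; score merges spot fluorescence near 667 nm with signal-to-noise over triplicate slides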
# experimentalSetup: probe aLAP1, fluorescence, higher = more signal
Parameter composite z-score: see the listing below.
Could you keep your reply to the number by itself?

Example entries begin here.
1. NCCCCCCNC(=O)[C@H]1C[C@H]2C(=O)N[C@@H](Cc3ccccc3)C(=O)N2[C@H]1c1ccc(O)cc1 | 0.205
2. CC[C@H]1C2=C3C(CC[C@H]4C(OCc5ccc(F)cc5C(F)(F)F)OC[C@](C)([C@@H]34)N(C(=O)OC(C)(C)C)C2)C2COC(=O)OCC21 (some centres not stated) | 0.494
3. COC(=O)[C@@]1(Cc2ccc(OC)cc2)[C@H]2c3cc(C(=O)N(C)C)n(Cc4nc5ccccc5[nH]4)c3C[C@H]2CN1C(=O)c1ccccc1 | -0.0637
4. COCCOC(=O)N1C(=O)[C@@]2(c3cc(C#CC4(O)CCCCCC4)ccc31)[C@H](C(=O)N1CCCCCCC1)[C@H]1C(=O)O[C@H](c3ccccc3)[C@H](c3ccccc3)N1[C@@H]2c1ccc(OCCO)cc1 | 1.35
5. COC(=O)[C@@]1(Cc2ccccc2)[C@H]2c3cc(C(=O)N4CCCC4)[nH]c3C[C@H]2CN1C(=O)c1ccccc1 | 0.341
6. O=C1NC(=O)C2C1C=CC(C(O)c1ccc(Br)cc1)N2Nc1ccccn1 (configuration not stated) | 0.74

Qu. Using known records, supply composite z-score for Cc1ccc(S[C@]2(C(=O)NCc3ccccc3)CC(=O)N(C(C)C)[C@@H]2c2ccc(CO)cc2I)cc1
Ans. 0.704

###

# Test system: PRMT1 (protein arginine N-methyltransferase 1)
# testDetails: PRMT1 binders on small-molecule microarrays, primary screen, biochemical, small-molecule microarray, 635 nm fluorescence (AID 1088);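 note: binding of Prmt1 protein to compounds spotted on small-molecule microarray slides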
# experimentalSetup: small-molecule microarray binding, higher = more signal
attributeMeasured: composite z-score
Just the number, please, no unit attached.

Worked set:
1. COc1ccc(NN2C(C(O)c3ccco3)C=CC3C(=O)N(C4CCCCC4)C(=O)C32)cc1 (centres undefined) | 1.56
2. COc1cc2c(cc1OC)CN(C(=O)[C@H]1[C@@H]3C(=O)O[C@@H](c4ccccc4)[C@@H](c4ccccc4)N3[C@@H](c3ccc(OCCO)cc3)[C@]13C(=O)Nc1ccc(C#CCCO)cc13)CC2 | 1.54
3. C[C@@H]1ON(c2ccc(C(=O)OC(C)(C)C)cc2)[C@H](c2ccc(Br)cc2)[C@H]1C(=O)N1C(=O)OC[C@H]1Cc1ccccc1 | 1.53
4. CCC[C@@H]1C[C@@]1(CCC)[C@@H](NP(=O)(c1ccccc1)c1ccccc1)c1ccc(Cl)cc1 | -0.189

Consider the record given below.
Qu. Provide composite z-score, system PRMT1 (protein arginine N-methyltransferase 1), entry CC=CC(O)C1C=CC2C(=O)N(C)C(=O)C2N1Nc1ccc([N+](=O)[O-])cc1[N+](=O)[O-] (centres undefined)
Ans. 0.0758
